Test system: 786-0 renal
Assay: NCI tumour cell line growth inhibition, 48 h; in the data active = GI50 below about 0.43 µM; inactive = the rest
Respond only with the outcome that fits, drawn from TRUE for active, FALSE for inactive

A selection of reference data follows.
{"molecule": "CCN(CC)CC(O)CNc1ccc(NCC2CO2)c2c1C(=O)c1ccccc1C2=O (centres undefined)", "category_label": "TRUE"}
{"molecule": "O=[N+]([O-])c1cc(Cl)c(Cl)c([N+](=O)[O-])c1Cl", "category_label": "FALSE"}
{"molecule": "CC12OC(c3ccccc3)=CC(c3ccc(Cl)cc3)=C1C(c1ccccc1)=CC2=O (centres undefined)", "category_label": "FALSE"}
{"molecule": "O=Cc1ccc(-c2cc(C=O)c(-c3cccs3)[nH]2)s1", "category_label": "FALSE"}
{"molecule": "CCN(CC)CCCC(C)Nc1c2ccc(Cl)cc2nc2ccc(OC)cc12 (centres undefined)", "category_label": "FALSE"}
{"molecule": "CN[C@@H](C)C(=O)N[C@H](C(=O)N1CCC[C@H]1C(=O)N[C@H]1c2ccccc2C[C@H]1OCC#CC#CCO[C@@H]1Cc2ccccc2[C@@H]1NC(=O)[C@@H]1CCCN1C(=O)[C@@H](NC(=O)[C@H](C)NC)C1CCCCC1)C1CCCCC1", "category_label": "FALSE"}
{"molecule": "O=c1c(Oc2ccc(F)cc2F)cc2cnc(NC3CCOCC3)nc2n1C1CCS(=O)(=O)CC1", "category_label": "FALSE"}
{"molecule": "CC(=O)[O-].CC(=O)[O-].[Pt+2].c1cscn1.c1cscn1", "category_label": "FALSE"}

Next molecule, please.
Lookup: Just curious, what result did O=c1ccn(C2OC(CO)C(O)C2F)c(=O)[nH]1 (centres undefined) get here?
Found: FALSE

====

Tested on: T-47D breast
Assay: NCI tumour cell line growth inhibition, 48 h
Quick reference: TGI of the listed items.
Number in µM, nothing else.

For orientation, consider the following solved cases.
{"compound": "CC1(C)C2CCC3=C(CCC4(C)C5C[C@](C)(C(=O)O)CC[C@]5(C)CC[C@]34C)[C@@]2(C)CC[C@@H]1O (stereo partly specified)", "tgt": "T-47D breast", "TGI / µM": 38.4}
{"compound": "COc1ccc(/C=N\\NC(=O)CN2CCN(c3cc4c(cc3F)c(=O)c(C(=O)N/N=C/c3ccc(OC)c(OC)c3)cn4C3CC3)CC2)cc1OC", "tgt": "T-47D breast", "TGI / µM": 8.78}
{"compound": "CN[C@@H](C)C(=O)N[C@H](C(=O)N1CCC[C@H]1C(=O)N[C@H]1c2ccccc2C[C@H]1OCC#CC#CCO[C@@H]1Cc2ccccc2[C@@H]1NC(=O)[C@@H]1CCCN1C(=O)[C@@H](NC(=O)[C@H](C)NC)C1CCCCC1)C1CCCCC1", "tgt": "T-47D breast", "TGI / µM": 4.39}

Turning to the following compound.
Lab note: Cc1cc(C)nc(NS(=O)(=O)c2ccc(NNc3c4ccccc4nc4c(C(=O)Nc5ccc(S(=O)(=O)Nc6ncccn6)cc5)cccc34)cc2)n1 gave TGI of 74.3

====

Entries and their measured TGI follow.
Test system: NCI-H23 lung
Experiment: NCI tumour cell line growth inhibition, 48 h

Record excerpt, results attached:
{"compound": "Cc1oc2c(c1C)S(=O)(=O)C(C#N)=C(c1ccccc1)N2", "tgt": "NCI-H23 lung", "assay_result": "> 100 µM"}
{"compound": "CCOC(=O)NNC(=O)C1CSC(c2ccccc2)N1C(C)=O (stereo unspecified)", "tgt": "NCI-H23 lung", "assay_result": "> 100 µM"}
{"compound": "CC(C)CS(=O)(=O)/C(=C(\\c1ccc(Br)cc1)S(=O)(=O)CC(C)C)c1ccc(Br)cc1", "tgt": "NCI-H23 lung", "assay_result": "> 100 µM"}
{"compound": "O=C(Nc1cccc2ccccc12)Nn1cnnc1", "tgt": "NCI-H23 lung", "assay_result": "> 100 µM"}
{"compound": "O=c1[nH]c(C23CC4CC(CC(C4)C2)C3)cc2c1c(=O)oc1ccccc12", "tgt": "NCI-H23 lung", "assay_result": "23 µM"}

Per the records, this compound ( COc1cc(S(=O)(=O)Nc2nc(-c3ccc(N4C(=O)CSC4c4cccs4)cc3)cs2)ccc1Cl (stereo unspecified) ) has TGI equal to 89 µM

Summary for this compound, CCOC(=O)Nc1nc2ccc(Cn3cccc3)cc2[nH]1 : TGI is > 100 µM

Short answer for CC(=O)O[C@H]1CC[C@H]2[C@@H]3CCC4C(C)=NNC(=O)C4[C@H]3CC[C@]12C (stereo partly specified) : TGI was > 100 µM

Hello, the source for this data is PubChem BioAssay (NCI), in case you need it.
